Values from ChEMBL document CHEMBL1136267

target: Peroxisome proliferator-activated receptor gamma (Homo sapiens); assay: In vitro activation of human peroxisome proliferator activated receptor gamma (PPAR gamma)
Sequence (P37231 whole entry): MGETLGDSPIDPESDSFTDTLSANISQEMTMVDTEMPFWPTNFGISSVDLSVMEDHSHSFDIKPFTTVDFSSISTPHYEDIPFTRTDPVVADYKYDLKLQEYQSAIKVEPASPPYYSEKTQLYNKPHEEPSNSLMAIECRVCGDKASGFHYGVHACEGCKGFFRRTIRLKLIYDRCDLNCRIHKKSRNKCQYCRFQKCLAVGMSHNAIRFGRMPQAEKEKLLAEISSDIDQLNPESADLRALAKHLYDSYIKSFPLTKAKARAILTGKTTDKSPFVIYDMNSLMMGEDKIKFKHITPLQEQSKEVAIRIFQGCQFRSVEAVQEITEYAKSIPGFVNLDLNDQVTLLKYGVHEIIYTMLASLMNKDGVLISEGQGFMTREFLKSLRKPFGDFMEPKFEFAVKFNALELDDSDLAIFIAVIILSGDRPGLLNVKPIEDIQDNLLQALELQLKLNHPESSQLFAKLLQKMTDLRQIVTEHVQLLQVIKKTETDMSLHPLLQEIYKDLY
Give pEC50 for every item shown.
One number for each entry, as −log10 of the molar value.

The following compounds have reported results that may help.
[
  {
    "RECORD_SMILES": "CCO[C@@H](Cc1ccc(OC/C=C(\\c2ccccc2)c2ccc(-c3ccco3)cc2)cc1)C(=O)O",
    "OBSERVATION_TYPE": "pEC50",
    "ENDPOINT_VALUE": 6.10
  },
  {
    "RECORD_SMILES": "CCO[C@@H](Cc1ccc(OCCN(c2ccccc2)c2ccccc2)cc1)C(=O)O",
    "OBSERVATION_TYPE": "pEC50",
    "ENDPOINT_VALUE": 5.48
  },
  {
    "RECORD_SMILES": "CCO[C@@H](Cc1ccc(OC/C=C(/c2ccccc2)c2ccc(F)cc2)cc1)C(=O)O",
    "OBSERVATION_TYPE": "pEC50",
    "ENDPOINT_VALUE": 5.40
  },
  {
    "RECORD_SMILES": "CCO[C@@H](Cc1ccc(OC/C=C(\\c2ccccc2)c2ccc(Br)cc2)cc1)C(=O)O",
    "OBSERVATION_TYPE": "pEC50",
    "ENDPOINT_VALUE": 5.82
  },
  {
    "RECORD_SMILES": "CCO[C@@H](Cc1ccc(OC/C=C(/c2ccccc2)c2ccc(Br)cc2)cc1)C(=O)O",
    "OBSERVATION_TYPE": "pEC50",
    "ENDPOINT_VALUE": 5.37
  },
  {
    "RECORD_SMILES": "CCO[C@@H](Cc1ccc(OC/C=C(\\c2ccccc2)c2ccc(-c3ccccc3)cc2)cc1)C(=O)O",
    "OBSERVATION_TYPE": "pEC50",
    "ENDPOINT_VALUE": 6.22
  }
]

Batch lookup, pEC50 per entry.
1. CCO[C@@H](Cc1ccc(OC/C=C(\c2ccccc2)c2ccc(F)cc2)cc1)C(=O)O
2. CCO[C@@H](Cc1ccc(OC/C=C(/c2ccccc2)c2ccc(-c3ccccc3)cc2)cc1)C(=O)O

result:
[5.07, 5.77]

Okay, here is my list. What is pEC50 for each of these?
1. CCO[C@@H](Cc1ccc(OCC=C(c2ccc(-c3ccccc3)cc2)c2ccc(-c3ccccc3)cc2)cc1)C(=O)O
2. CCO[C@@H](Cc1ccc(OCC=C(c2ccccc2)c2ccccc2)cc1)C(=O)O
3. CCO[C@@H](Cc1ccc(OCC=C(c2ccc(-c3ccco3)cc2)c2ccc(-c3ccco3)cc2)cc1)C(=O)O
4. CCO[C@@H](Cc1ccc(OCC=C(c2ccc(Br)cc2)c2ccc(Br)cc2)cc1)C(=O)O
5. CCO[C@@H](Cc1ccc(OCC=C(c2ccc(OC)cc2)c2ccc(OC)cc2)cc1)C(=O)O
6. CCO[C@@H](Cc1ccc(OCC=C(c2ccc(C)cc2)c2ccc(C)cc2)cc1)C(=O)O

result:
6.52
5.57
5.54
6.05
5.66
5.51

query: Observed pEC50 on Peroxisome proliferator-activated receptor gamma (Homo sapiens) for `CCO[C@@H](Cc1ccc(OC/C=C(/c2ccccc2)c2ccc(-c3ccco3)cc2)cc1)C(=O)O` , please.
result: 5.70

* * *

Biological target: Peroxisome proliferator-activated receptor alpha (Homo sapiens)
Sequence (Q07869 whole entry): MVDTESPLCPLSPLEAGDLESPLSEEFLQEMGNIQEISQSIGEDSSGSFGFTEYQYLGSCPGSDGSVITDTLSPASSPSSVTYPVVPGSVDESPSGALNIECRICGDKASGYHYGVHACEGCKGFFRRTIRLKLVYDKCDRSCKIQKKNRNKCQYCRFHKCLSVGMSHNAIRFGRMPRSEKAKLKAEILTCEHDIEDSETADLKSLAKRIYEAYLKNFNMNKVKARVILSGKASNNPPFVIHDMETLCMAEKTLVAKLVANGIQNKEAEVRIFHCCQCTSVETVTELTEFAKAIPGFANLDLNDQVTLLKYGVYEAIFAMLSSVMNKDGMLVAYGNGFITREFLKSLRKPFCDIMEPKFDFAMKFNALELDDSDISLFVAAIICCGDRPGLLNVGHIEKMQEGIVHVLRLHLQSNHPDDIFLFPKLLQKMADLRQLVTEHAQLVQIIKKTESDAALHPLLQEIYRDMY
pEC50: −log10 of the molar value.
Tag: label 1 if measured pEC50 is not below 6, label 0 if it is.

Previously resolved entries follow.
[
  {
    "RECORD_SMILES": "CCO[C@@H](Cc1ccc(OC/C=C(/c2ccccc2)c2ccc(F)cc2)cc1)C(=O)O",
    "CAT": "label 0"
  },
  {
    "RECORD_SMILES": "CCO[C@@H](Cc1ccc(OC/C=C(\\c2ccccc2)c2ccc(F)cc2)cc1)C(=O)O",
    "CAT": "label 0"
  },
  {
    "RECORD_SMILES": "CCO[C@@H](Cc1ccc(OC/C=C(/c2ccccc2)c2ccc(Br)cc2)cc1)C(=O)O",
    "CAT": "label 0"
  },
  {
    "RECORD_SMILES": "CCO[C@@H](Cc1ccc(OCC=C(c2ccc(OC)cc2)c2ccc(OC)cc2)cc1)C(=O)O",
    "CAT": "label 0"
  }
]

query: Decide: is the reported value of pEC50 for `CCO[C@@H](Cc1ccc(OC/C=C(\c2ccccc2)c2ccc(-c3ccco3)cc2)cc1)C(=O)O` equal to or greater than 6?
result: label 1

query: Could you verify whether the entry `CCO[C@@H](Cc1ccc(OC/C=C(/c2ccccc2)c2ccc(-c3ccco3)cc2)cc1)C(=O)O` shows pEC50 of no less than 6?
result: label 1

* * *

Molecular target: Peroxisome proliferator-activated receptor alpha (Homo sapiens)
Sequence (Q07869 whole entry): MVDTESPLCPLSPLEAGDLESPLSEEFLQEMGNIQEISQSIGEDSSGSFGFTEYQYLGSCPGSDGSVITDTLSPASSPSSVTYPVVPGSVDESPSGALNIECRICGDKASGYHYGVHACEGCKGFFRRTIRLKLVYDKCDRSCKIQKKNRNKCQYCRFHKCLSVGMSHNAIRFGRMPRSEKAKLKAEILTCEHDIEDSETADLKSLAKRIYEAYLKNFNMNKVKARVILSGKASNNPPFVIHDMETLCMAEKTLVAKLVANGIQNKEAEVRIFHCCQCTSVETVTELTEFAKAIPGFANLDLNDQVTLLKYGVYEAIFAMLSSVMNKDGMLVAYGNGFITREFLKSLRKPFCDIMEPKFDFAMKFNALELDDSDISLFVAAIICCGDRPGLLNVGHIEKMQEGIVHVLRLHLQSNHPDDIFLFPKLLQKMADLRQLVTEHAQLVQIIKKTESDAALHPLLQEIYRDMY
Kindly state pEC50 for each of the entries shown.
Numbers only, as −log10 of the molar value.

Consider the worked cases shown below.
[
  {
    "RECORD_SMILES": "CCO[C@@H](Cc1ccc(OC/C=C(\\c2ccccc2)c2ccc(-c3ccccc3)cc2)cc1)C(=O)O",
    "TARGET_OF_ASSAY": "Peroxisome proliferator-activated receptor alpha (Homo sapiens)",
    "pEC50": 6.05
  },
  {
    "RECORD_SMILES": "CCO[C@@H](Cc1ccc(OC/C=C(/c2ccccc2)c2ccc(-c3ccccc3)cc2)cc1)C(=O)O",
    "TARGET_OF_ASSAY": "Peroxisome proliferator-activated receptor alpha (Homo sapiens)",
    "pEC50": 6.15
  }
]

query: Fill in: pEC50 of `CCO[C@@H](Cc1ccc(OCC=C(c2ccc(C)cc2)c2ccc(C)cc2)cc1)C(=O)O` is ___
result: 6.15
